Molecular target: Protein cereblon/von Hippel-Lindau disease tumor suppressor (Homo sapiens, UniProt P40337+Q96SW2)
Sequence (P40337 whole entry, looked up): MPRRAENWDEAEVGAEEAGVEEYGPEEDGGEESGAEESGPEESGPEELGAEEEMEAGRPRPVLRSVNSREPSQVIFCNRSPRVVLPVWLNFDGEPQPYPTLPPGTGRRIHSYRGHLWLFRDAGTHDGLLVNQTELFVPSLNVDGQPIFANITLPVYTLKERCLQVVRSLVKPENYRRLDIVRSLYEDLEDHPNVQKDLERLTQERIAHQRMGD
Sequence (Q96SW2 whole entry, looked up): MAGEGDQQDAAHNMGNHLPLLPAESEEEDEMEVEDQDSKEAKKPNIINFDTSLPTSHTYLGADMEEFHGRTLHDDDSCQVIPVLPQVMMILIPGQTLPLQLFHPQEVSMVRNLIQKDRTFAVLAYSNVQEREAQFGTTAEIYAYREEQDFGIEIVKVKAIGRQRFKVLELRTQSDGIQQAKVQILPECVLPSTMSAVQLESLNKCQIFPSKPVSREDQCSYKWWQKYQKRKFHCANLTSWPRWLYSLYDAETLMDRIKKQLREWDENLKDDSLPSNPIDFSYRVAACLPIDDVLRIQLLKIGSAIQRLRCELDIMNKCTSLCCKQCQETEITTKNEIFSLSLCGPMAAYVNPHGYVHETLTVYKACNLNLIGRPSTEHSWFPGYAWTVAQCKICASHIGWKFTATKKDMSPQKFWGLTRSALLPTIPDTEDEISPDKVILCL
Assay: Protac activity at VHL/CRBN in human HeLa cells assessed as pVHL19 protein abundance at 10 nM after 4 hrs by Western blot analysis relative to DMSO
Type: cell-based
endpoint-label: Activity (%)
Just the number in %, nothing appended.

Cc1ncsc1-c1ccc(CNC(=O)[C@@H]2C[C@@H](O)CN2C(=O)[C@@H](NC(=O)COCCOCCOCCOCCOCCOCCOCCOCCOCC(=O)NCCNc2cccc3c2C(=O)N(C2CCC(=O)NC2=O)C3=O)C(C)(C)C)cc1 (some centres undefined)
99
Cc1ncsc1-c1ccc(CNC(=O)[C@@H]2C[C@@H](O)CN2C(=O)[C@@H](NC(=O)C2(F)CC2)C(C)(C)SCCCCC(=O)NCCNc2cccc3c2C(=O)N(C2CCC(=O)NC2=O)C3=O)cc1 (some centres undefined)
93
Cc1ncsc1-c1ccc(CNC(=O)[C@@H]2C[C@@H](O)CN2C(=O)[C@@H](NC(=O)C2(F)CC2)C(C)(C)C)c(OCCOCCOCCOCC(=O)NCCNc2cccc3c2C(=O)N(C2CCC(=O)NC2=O)C3=O)c1 (some centres undefined)
97

API: the following record is the query input.
input: Query: Activity; subject: Cc1ncsc1-c1ccc(CNC(=O)[C@@H]2C[C@@H](O)CN2C(=O)[C@@H](NC(=O)C2(F)CC2)C(C)(C)SCCOCCOCCOCC(=O)NCCNc2cccc3c2C(=O)N(C2CCC(=O)NC2=O)C3=O)cc1 (some centres undefined)
output: 87

Reference source: ChEMBL document CHEMBL4665633
